- subject_of_test: Histamine H2 receptor (Cavia porcellus)
- Sequence (P47747 whole entry): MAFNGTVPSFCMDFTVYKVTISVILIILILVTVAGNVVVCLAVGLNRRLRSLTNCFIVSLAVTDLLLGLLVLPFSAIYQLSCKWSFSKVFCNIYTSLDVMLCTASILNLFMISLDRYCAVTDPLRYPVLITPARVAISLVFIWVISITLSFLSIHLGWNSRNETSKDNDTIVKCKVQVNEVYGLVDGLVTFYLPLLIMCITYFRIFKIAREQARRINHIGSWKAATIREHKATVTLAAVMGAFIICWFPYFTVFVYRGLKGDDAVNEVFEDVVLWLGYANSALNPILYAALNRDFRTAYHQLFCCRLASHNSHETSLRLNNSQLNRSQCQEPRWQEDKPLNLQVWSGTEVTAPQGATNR
- run_description: Agonist activity at histamine H2 receptor in guinea pig atrium assessed as maximal increase in heart rate relative to histamine
- Type: functional, tissue-based
- conditions_used: Cardiac atrium
attribute_measured: Activity

CC(C)C(=O)/N=C(\N)NCCCc1c[nH]cn1 : 0.98
CC(CC(=O)/N=C(\N)NCCCc1c[nH]cn1)c1ccccc1 (centres undefined) : 0.99
CC(=O)/N=C(\N)NCCCc1c[nH]cn1 : 0.83
CN(CCC(=O)/N=C(\N)NCCCc1c[nH]cn1)C(=O)c1cc2ccccc2[nH]1 : 0.84
N/C(=N\C(=O)CCc1c[nH]c2ccccc12)NCCCc1c[nH]cn1 : 1.01
CCCC(=O)/N=C(\N)NCCCc1c[nH]cn1 : 0.97
N/C(=N\C(=O)Cc1c[nH]c2ccccc12)NCCCc1c[nH]cn1 : 0.91
CCC(=O)/N=C(\N)NCCCc1c[nH]cn1 : 0.94
N/C(=N\C(=O)CCCNC(=O)c1cc2ccccc2[nH]1)NCCCc1c[nH]cn1 : 0.9

###

- subject_of_test: Histamine H3 receptor (Homo sapiens)
- Sequence (Q9Y5N1 whole entry): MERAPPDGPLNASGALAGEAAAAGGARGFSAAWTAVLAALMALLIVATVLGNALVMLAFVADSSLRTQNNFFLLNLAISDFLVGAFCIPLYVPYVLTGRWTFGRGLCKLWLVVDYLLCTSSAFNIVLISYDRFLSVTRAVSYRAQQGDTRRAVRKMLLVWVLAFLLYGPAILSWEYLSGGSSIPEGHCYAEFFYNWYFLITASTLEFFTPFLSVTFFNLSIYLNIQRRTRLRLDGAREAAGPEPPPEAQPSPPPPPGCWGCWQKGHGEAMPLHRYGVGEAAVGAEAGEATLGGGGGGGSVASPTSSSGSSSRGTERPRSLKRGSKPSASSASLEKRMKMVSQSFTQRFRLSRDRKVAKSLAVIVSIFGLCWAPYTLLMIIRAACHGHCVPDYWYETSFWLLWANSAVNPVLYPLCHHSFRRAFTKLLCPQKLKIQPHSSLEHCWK
- run_description: Intrinsic activity at human H3 receptor expressed in insect Sf9 cells co-expressing Gialpha2, Gbeta1gamma2 and RGS4 assessed as gamma[32P]GTP binding at 10 uM by liquid scintillation counting relative to histamine
The following compounds are shown together with reported Activity values.
attribute_measured: Activity

S=C(NC1CCCCC1)N1CCC(c2cnc[nH]2)CC1 : -0.71
N/C(=N\C(=O)CCCNC(=O)c1cc2ccccc2[nH]1)NCCCc1c[nH]cn1 : -0.18
N/C(=N\C(=O)CCc1c[nH]c2ccccc12)NCCCc1c[nH]cn1 : -0.18
CCCC(=O)/N=C(\N)NCCCc1c[nH]cn1 : 0.37
N=C(N)NCCCc1c[nH]cn1 : 0.69
CC(=O)/N=C(\N)NCCCc1c[nH]cn1 : 0.27

###

- subject_of_test: Histamine H3 receptor (Homo sapiens)
- run_description: Antagonist activity at human H3 receptor expressed in insect Sf9 cells co-expressing Gialpha2, Gbeta1gamma2 and RGS4 assessed as inhibition of histamine-induced gamma[32P]GTP binding by liquid scintillation counting
attribute_measured: pKb

N/C(=N\C(=O)Cc1c[nH]c2ccccc12)NCCCc1c[nH]cn1 : 7.51
N/C(=N\C(=O)c1cc2ccccc2[nH]1)NCCCc1c[nH]cn1 : 6.96
N/C(=N\C(=O)CCCNC(=O)c1cc2ccccc2[nH]1)NCCCc1c[nH]cn1 : 7.17
N/C(=N\C(=O)CCNC(=O)c1cc2ccccc2[nH]1)NCCCc1c[nH]cn1 : 7.17
N/C(=N\C(=O)CCc1c[nH]c2ccccc12)NCCCc1c[nH]cn1 : 7.57

###

The following molecules are shown together with reported EC50 values.
- subject_of_test: Histamine H2 receptor (Cavia porcellus)
- run_description: Agonist activity at histamine H2 receptor in guinea pig atrium assessed as increase in heart rate
attribute_measured: EC50 (nM)

CN(CCC(=O)/N=C(\N)NCCCc1c[nH]cn1)C(=O)c1cc2ccccc2[nH]1 : 3550
N/C(=N\C(=O)CCCNC(=O)c1cc2ccccc2[nH]1)NCCCc1c[nH]cn1 : 490
N/C(=N\C(=O)Cc1c[nH]c2ccccc12)NCCCc1c[nH]cn1 : 182
CCCC(=O)/N=C(\N)NCCCc1c[nH]cn1 : 186
CC(C)C(=O)/N=C(\N)NCCCc1c[nH]cn1 : 110
N/C(=N\C(=O)CCc1c[nH]c2ccccc12)NCCCc1c[nH]cn1 : 77.6
CC(=O)NC(N)=NCCCc1cnc[nH]1 : 813

###

- subject_of_test: Histamine H1 receptor (Cavia porcellus, UniProt P31389)
- Sequence (P31389 whole entry): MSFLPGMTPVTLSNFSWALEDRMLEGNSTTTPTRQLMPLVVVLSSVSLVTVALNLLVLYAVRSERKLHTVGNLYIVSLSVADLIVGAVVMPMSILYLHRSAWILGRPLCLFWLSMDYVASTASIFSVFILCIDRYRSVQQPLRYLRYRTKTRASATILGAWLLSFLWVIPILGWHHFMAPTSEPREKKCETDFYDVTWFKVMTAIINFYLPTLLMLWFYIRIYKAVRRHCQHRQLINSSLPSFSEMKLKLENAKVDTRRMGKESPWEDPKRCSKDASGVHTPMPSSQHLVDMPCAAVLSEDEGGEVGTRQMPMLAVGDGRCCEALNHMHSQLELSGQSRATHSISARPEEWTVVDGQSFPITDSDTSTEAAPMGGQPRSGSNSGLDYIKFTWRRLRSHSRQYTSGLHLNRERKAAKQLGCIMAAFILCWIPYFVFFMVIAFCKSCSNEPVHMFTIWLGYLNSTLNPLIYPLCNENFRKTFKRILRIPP
- run_description: Antagonist activity at histamine H1 receptor in guinea pig ileum assessed as inhibition of histamine-induced contractions
- Assay type: functional, tissue-based
- conditions_used: read-out: pA2 (converted)
Values of Kb greater than or equal to 0.7 µM map to true; values below map to false.

CC(=O)NC(N)=NCCCc1cnc[nH]1 : true
CC(C)C(=O)/N=C(\N)NCCCc1c[nH]cn1 : true
CCC(=O)/N=C(\N)NCCCc1c[nH]cn1 : true
CCCC(=O)/N=C(\N)NCCCc1c[nH]cn1 : true
N/C(=N\C(=O)CCc1c[nH]c2ccccc12)NCCCc1c[nH]cn1 : false
CN(CCC(=O)/N=C(\N)NCCCc1c[nH]cn1)C(=O)c1cc2ccccc2[nH]1 : true
N/C(=N\C(=O)Cc1c[nH]c2ccccc12)NCCCc1c[nH]cn1 : false
N/C(=N\C(=O)CCCNC(=O)c1cc2ccccc2[nH]1)NCCCc1c[nH]cn1 : true

###

- subject_of_test: Histamine H1 receptor (Homo sapiens, UniProt P35367)
- Sequence (P35367 whole entry): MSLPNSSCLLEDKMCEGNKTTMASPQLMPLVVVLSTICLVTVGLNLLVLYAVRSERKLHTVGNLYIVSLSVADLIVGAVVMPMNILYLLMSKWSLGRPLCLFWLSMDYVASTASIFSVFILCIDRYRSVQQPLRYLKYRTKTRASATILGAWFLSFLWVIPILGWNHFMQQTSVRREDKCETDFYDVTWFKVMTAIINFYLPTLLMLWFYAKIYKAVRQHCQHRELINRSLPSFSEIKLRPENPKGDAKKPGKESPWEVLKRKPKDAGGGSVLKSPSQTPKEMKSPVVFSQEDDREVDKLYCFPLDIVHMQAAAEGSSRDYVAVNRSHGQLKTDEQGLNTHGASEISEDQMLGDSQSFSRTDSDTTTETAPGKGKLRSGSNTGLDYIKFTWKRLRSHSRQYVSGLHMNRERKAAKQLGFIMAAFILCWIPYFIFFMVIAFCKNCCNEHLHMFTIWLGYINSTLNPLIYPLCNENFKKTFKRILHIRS
- run_description: Intrinsic activity at human H1 receptor expressed in insect Sf9 cells co-expressing RGS4 assessed as gamma[32P]GTP binding at 10 uM by liquid scintillation counting relative to histamine
attribute_measured: Activity

CC(C)C(=O)/N=C(\N)NCCCc1c[nH]cn1 : 0.35
CCCC(=O)/N=C(\N)NCCCc1c[nH]cn1 : 0.33
CC(CC(=O)/N=C(\N)NCCCc1c[nH]cn1)c1ccccc1 (stereo not drawn) : 0.35

###

- subject_of_test: Histamine H4 receptor (Homo sapiens)
- Sequence (Q9H3N8 whole entry, the tested form may be a part): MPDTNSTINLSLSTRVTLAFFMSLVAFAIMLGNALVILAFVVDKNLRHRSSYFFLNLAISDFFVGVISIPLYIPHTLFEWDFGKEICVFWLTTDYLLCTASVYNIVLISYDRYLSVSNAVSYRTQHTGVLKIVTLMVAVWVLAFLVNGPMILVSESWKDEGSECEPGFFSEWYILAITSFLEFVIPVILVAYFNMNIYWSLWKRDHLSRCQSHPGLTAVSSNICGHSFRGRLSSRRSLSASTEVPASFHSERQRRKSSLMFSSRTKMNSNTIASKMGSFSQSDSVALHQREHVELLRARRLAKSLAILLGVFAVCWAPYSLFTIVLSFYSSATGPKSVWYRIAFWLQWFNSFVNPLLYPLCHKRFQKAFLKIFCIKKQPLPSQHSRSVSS
- run_description: Intrinsic activity at human H4 receptor expressed in insect Sf9 cells co-expressing RGS19 fusion protein and Gialpha2, Gbeta1gamma2 assessed as gamma[32P]GTP binding at 10 uM by liquid scintillation counting relative to histamine
attribute_measured: Activity

S=C(NC1CCCCC1)N1CCC(c2cnc[nH]2)CC1 : -0.95
CC(CC(=O)/N=C(\N)NCCCc1c[nH]cn1)c1ccccc1 (stereo not drawn) : 0.84
N/C(=N\C(=O)CNC(=O)c1cc2ccccc2[nH]1)NCCCc1c[nH]cn1 : 0.71
N/C(=N\C(=O)CCc1c[nH]c2ccccc12)NCCCc1c[nH]cn1 : 0.45
N/C(=N\C(=O)c1cc2ccccc2[nH]1)NCCCc1c[nH]cn1 : 0.21
N/C(=N\C(=O)CCCNC(=O)c1cc2ccccc2[nH]1)NCCCc1c[nH]cn1 : -0.06
N/C(=N\C(=O)CCNC(=O)c1cc2ccccc2[nH]1)NCCCc1c[nH]cn1 : 0.37
CCCC(=O)/N=C(\N)NCCCc1c[nH]cn1 : 0.96
CC(=O)/N=C(\N)NCCCc1c[nH]cn1 : 1
N/C(=N\C(=O)Cc1c[nH]c2ccccc12)NCCCc1c[nH]cn1 : 0.7
CC(C)C(=O)/N=C(\N)NCCCc1c[nH]cn1 : 0.94
N=C(N)NCCCc1c[nH]cn1 : 0.83
CN(CCC(=O)/N=C(\N)NCCCc1c[nH]cn1)C(=O)c1cc2ccccc2[nH]1 : 0.52

###

The following compounds are shown together with reported Activity values.
- subject_of_test: Histamine H1 receptor (Homo sapiens)
- run_description: Intrinsic activity at human H1 receptor expressed in insect Sf9 cells co-expressing RGS4 assessed as gamma[32P]GTP binding at 10 uM by liquid scintillation counting relative to histamine
attribute_measured: Activity

CC(=O)/N=C(\N)NCCCc1c[nH]cn1 : 0.24
N/C(=N\C(=O)CCCNC(=O)c1cc2ccccc2[nH]1)NCCCc1c[nH]cn1 : 0.16
N/C(=N\C(=O)CCc1c[nH]c2ccccc12)NCCCc1c[nH]cn1 : 0.09
CCC(=O)/N=C(\N)NCCCc1c[nH]cn1 : 0.3
N/C(=N\C(=O)Cc1c[nH]c2ccccc12)NCCCc1c[nH]cn1 : 0
N/C(=N\C(=O)c1cc2ccccc2[nH]1)NCCCc1c[nH]cn1 : 0.42

###

- subject_of_test: Histamine H2 receptor (Homo sapiens)
- Sequence (P25021 whole entry, the tested form may be a part): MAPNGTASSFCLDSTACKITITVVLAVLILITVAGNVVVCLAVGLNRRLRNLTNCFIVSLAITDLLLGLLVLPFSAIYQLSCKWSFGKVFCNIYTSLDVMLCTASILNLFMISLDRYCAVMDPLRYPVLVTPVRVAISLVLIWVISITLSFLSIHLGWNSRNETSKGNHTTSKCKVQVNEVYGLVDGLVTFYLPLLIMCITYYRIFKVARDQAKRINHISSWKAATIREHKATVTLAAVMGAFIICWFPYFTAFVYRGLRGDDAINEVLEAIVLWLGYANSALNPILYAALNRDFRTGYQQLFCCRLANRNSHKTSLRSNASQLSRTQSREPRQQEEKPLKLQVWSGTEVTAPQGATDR
- run_description: Agonist activity at human H2 receptor expressed in insect Sf9 cells co-expressing GsalphaS fusion protein assessed as gamma[32P]GTP binding by liquid scintillation counting
attribute_measured: log10(EC50) (log10 of the value in nM)

CCC(=O)/N=C(\N)NCCCc1c[nH]cn1 : 2.57
N/C(=N\C(=O)CCCNC(=O)c1cc2ccccc2[nH]1)NCCCc1c[nH]cn1 : 1.48
N/C(=N\C(=O)c1cc2ccccc2[nH]1)NCCCc1c[nH]cn1 : 2.46
N/C(=N\C(=O)CCc1c[nH]c2ccccc12)NCCCc1c[nH]cn1 : 1.91
CC(=O)NC(N)=NCCCc1cnc[nH]1 : 2.86
N/C(=N\C(=O)CCNC(=O)c1cc2ccccc2[nH]1)NCCCc1c[nH]cn1 : 1.92
N/C(=N\C(=O)CNC(=O)c1cc2ccccc2[nH]1)NCCCc1c[nH]cn1 : 2.98
N/C(=N\C(=O)Cc1c[nH]c2ccccc12)NCCCc1c[nH]cn1 : 1.56
CN(CCC(=O)/N=C(\N)NCCCc1c[nH]cn1)C(=O)c1cc2ccccc2[nH]1 : 2.54
CC(C)C(=O)/N=C(\N)NCCCc1c[nH]cn1 : 2.04
CCCC(=O)/N=C(\N)NCCCc1c[nH]cn1 : 2.15
